Molecular target: human NTCP (Homo sapiens)
Sequence (Q14973 whole entry): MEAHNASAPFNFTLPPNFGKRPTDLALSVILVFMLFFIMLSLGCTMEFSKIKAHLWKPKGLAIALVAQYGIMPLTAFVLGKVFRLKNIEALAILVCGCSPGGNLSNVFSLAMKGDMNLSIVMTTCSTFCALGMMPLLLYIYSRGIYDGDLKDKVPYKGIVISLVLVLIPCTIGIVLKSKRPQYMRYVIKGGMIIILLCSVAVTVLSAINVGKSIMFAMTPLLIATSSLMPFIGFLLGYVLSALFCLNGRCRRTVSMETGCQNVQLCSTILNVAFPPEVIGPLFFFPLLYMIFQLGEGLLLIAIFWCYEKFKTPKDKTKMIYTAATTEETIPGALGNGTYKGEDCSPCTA
Experiment: Screening fluorescent competitive Myrcludex B-FITC binding assay (96-well, 10 µM drug)
Conditions: Prestwick library screen, Myrcludex B-FITC binding, 10 µM drug
Structures can show the parent of a compound that is named as a salt.
B-score binding assay overview
Reply briefly: the number, and no unit.

Take a look at these entries with their results.
1. C#CCN(C)Cc1ccccc1 [Pargyline hydrochloride] | 0.419
2. O=C1C(O)=C([C@H]2CC[C@H](c3ccc(Cl)cc3)CC2)C(=O)c2ccccc21 | 0.68
3. CC/C(=C(\c1ccccc1)c1ccc(OCCN(C)C)cc1)c1ccccc1 [Tamoxifen citrate] | 0.04
4. CCCCC(C)(O)C/C=C/[C@H]1[C@H](O)CC(=O)[C@@H]1CCCCCCC(=O)OC (mixture of isomers) | 0.662
5. CCCc1nn(C)c2c(=O)[nH]c(-c3cc(S(=O)(=O)N4CCN(C)CC4)ccc3OCC)nc12 | 0.383

Note to self: B-score binding assay of CC(=O)S[C@@H]1CC2=CC(=O)CC[C@]2(C)[C@H]2CC[C@@]3(C)[C@@H](CC[C@@]34CCC(=O)O4)[C@H]12 with human NTCP (Homo sapiens) was 0.972

Tested system human NTCP (Homo sapiens); B-score binding assay recorded for Cc1cc(C)nc([N-]S(=O)(=O)c2ccc(N)cc2)n1.[Na+] [Sulfamethazine sodium salt] was 0.015

Response field B-score binding assay (human NTCP (Homo sapiens)) for item CC(N)C12CC3CC(CC(C3)C1)C2 (centres unmarked) [Rimantadine Hydrochloride] : 0.171

Tested on human NTCP (Homo sapiens): O=c1[nH]c(=O)n([C@H]2C[C@H](O)[C@@H](CO)O2)cc1F . Observed B-score binding assay: -0.009

# Cc1ccc(-c2cc(C(F)(F)F)nn2-c2ccc(S(N)(=O)=O)cc2)cc1 with human NTCP (Homo sapiens): B-score binding assay is 0.033
